Target: GAK (human) (UniProt O14976)
Sequence (O14976 whole entry, looked up): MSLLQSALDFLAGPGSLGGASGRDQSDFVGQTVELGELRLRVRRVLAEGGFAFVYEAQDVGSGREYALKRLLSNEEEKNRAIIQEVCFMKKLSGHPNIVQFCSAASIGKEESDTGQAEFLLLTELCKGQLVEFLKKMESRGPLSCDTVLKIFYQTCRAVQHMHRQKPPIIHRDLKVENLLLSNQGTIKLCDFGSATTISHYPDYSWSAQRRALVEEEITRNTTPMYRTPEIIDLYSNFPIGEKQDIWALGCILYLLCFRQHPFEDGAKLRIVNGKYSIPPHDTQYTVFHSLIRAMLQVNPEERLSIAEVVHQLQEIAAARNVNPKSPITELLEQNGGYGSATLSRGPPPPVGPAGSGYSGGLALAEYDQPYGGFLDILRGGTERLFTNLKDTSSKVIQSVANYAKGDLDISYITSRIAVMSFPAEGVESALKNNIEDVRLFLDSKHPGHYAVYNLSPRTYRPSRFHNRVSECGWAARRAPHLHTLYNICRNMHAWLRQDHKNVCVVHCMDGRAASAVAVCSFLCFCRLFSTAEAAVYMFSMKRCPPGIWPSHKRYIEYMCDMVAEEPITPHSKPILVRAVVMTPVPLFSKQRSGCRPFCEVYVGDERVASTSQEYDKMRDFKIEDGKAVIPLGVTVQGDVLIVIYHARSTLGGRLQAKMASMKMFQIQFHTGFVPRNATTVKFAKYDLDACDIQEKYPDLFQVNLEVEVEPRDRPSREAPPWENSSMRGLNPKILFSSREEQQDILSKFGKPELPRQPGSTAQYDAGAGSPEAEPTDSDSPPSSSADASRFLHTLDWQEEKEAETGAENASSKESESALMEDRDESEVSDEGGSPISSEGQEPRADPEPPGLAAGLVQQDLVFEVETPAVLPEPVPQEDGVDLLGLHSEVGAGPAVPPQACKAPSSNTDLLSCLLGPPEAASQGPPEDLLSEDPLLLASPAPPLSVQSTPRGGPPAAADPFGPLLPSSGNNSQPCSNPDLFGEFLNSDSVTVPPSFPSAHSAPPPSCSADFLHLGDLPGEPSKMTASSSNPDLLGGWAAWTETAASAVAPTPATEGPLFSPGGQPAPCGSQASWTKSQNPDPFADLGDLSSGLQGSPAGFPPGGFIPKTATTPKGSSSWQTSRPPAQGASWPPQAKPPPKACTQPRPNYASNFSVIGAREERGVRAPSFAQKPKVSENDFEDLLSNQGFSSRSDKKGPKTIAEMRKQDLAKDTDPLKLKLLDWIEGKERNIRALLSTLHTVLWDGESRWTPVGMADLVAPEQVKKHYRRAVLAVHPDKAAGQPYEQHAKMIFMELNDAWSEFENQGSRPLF
result-type: Kd (nM)
Dear colleague, please return just the value in nM, with no unit written.

// Kd lookup, key: COc1cc(N2CCN(C)CC2)ccc1Nc1ncc2c(n1)N(C)c1ccccc1C(=O)N2 270

* * *

Molecular target: FER (human)
Assay: KINOMEscan competition binding
Details: compound 10.0 µM
result-type: kinase still bound, per cent of control (%)
Field format: number, assumed %, no unit text.

Would you please look over these solved cases?
[
  {
    "molecule": "COc1cc(N2CCC(C)(O)CC2)ccc1Nc1ncc2c(n1)N(C1CCCC1)CCC(=O)N2C",
    "uom": "%",
    "kinase still bound, per cent of control": 18
  },
  {
    "molecule": "COc1cc(N2CCN(C)CC2)ccc1Nc1ncc2c(n1)N(C1CCCC1)C(C)CC(=O)N2 (stereo unspecified)",
    "uom": "%",
    "kinase still bound, per cent of control": 21
  },
  {
    "molecule": "COc1cc(N2CCN(C)CC2)ccc1Nc1ncc2c(n1)N(C1CCCC1)C(C)CC(=O)N2C (stereo unspecified)",
    "uom": "%",
    "kinase still bound, per cent of control": 25
  },
  {
    "molecule": "CN1CCN(c2ccc(C(=O)Nc3ncc4c(n3)N(C)c3ccccc3C(=O)N4C)cc2)CC1",
    "uom": "%",
    "kinase still bound, per cent of control": 72
  },
  {
    "molecule": "COc1cc(C(=O)NC2CCN(C)CC2)ccc1Nc1ncc2c(n1)N(C1CCCC1)CCC(=O)N2C",
    "uom": "%",
    "kinase still bound, per cent of control": 33
  }
]

# input molecule: COc1cc(N2CCC(O)CC2)ccc1Nc1ncc2c(n1)N1CCc3cccc(c31)C(=O)N2C ; wanted: its kinase still bound, per cent of control 74

Recorded kinase still bound, per cent of control for COc1cc(N2CCN(CCO)CC2)ccc1Nc1ncc2c(n1)N(C1CCCC1)CCC(=O)N2C , please? 24

GET /values?readout=kinase still bound, per cent of control&item= COc1cc(N2CCC(O)CC2)ccc1Nc1ncc2c(n1)N(C)c1ccccc1C(=O)N2C 32

Report kinase still bound, per cent of control for CN1C(=O)c2ccccc2N(C)c2nc(NS(=O)(=O)c3ccc(N)cc3)ncc21 please. 62

Report kinase still bound, per cent of control for COc1cc(N2CCN(C)CC2)ccc1Nc1ncc2c(n1)N(C)c1ccccc1N(C)C2=O please. 80

Given the entry COc1cc(N2CCN(C)CC2)ccc1Nc1ncc2c(n1)N(C)c1sccc1C(=O)N2C , report its measured kinase still bound, per cent of control. 36

Would you kindly share the measured kinase still bound, per cent of control for COc1cc(C(=O)NC2CCN(C)CC2)ccc1Nc1ncc2c(n1)N(C1CCCC1)C(C)CC(=O)N2C (stereo unspecified) ? 31

Field request: kinase still bound, per cent of control | item: COc1cc(N2CCN(C)CC2)ccc1Nc1ncc2c(n1)Nc1ccccc1NC2=O 100

State the recorded kinase still bound, per cent of control for this entry: COc1cc(N2CCN(C)CC2)ccc1Nc1ncc2c(n1)N(C)c1ccccc1C(=O)N2C 32

Sample CN1C(=O)c2ccccc2N(C)c2nc(Nc3ccc(N4CCC(O)CC4)cc3)ncc21 — what was its kinase still bound, per cent of control? 100

Record request: kinase still bound, per cent of control value, item O=C1NC(=O)/C(=C/c2c[nH]c(=O)c(-c3ccc(N4CCNCC4)nc3)c2)S1 100
